- TGT: Sodium-dependent serotonin transporter (Homo sapiens)
- Sequence (P31645 whole entry): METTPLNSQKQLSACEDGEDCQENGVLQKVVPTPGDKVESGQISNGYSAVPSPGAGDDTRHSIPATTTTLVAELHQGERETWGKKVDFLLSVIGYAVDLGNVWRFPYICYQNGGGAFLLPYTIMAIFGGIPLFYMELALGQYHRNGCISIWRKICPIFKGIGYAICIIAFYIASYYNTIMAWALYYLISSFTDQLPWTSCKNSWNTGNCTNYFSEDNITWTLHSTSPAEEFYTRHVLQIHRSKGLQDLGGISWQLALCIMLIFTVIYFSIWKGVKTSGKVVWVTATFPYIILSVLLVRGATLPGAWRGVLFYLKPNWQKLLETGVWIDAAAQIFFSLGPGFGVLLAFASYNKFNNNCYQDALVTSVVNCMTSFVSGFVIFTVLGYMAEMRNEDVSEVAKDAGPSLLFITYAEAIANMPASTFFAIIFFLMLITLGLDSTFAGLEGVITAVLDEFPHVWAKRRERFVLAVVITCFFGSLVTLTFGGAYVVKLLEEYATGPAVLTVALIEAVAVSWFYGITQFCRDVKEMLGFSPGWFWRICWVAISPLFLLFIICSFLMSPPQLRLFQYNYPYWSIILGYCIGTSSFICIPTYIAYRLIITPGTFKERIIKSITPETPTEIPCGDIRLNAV
- METHOD_SUMMARY: Displacement of [3H]-Paroxetine from recombinant human full length SERT after 60 mins by scintillation counting
MEASUREMENT_TYPE: pKi
# log scale: pKi equals minus log10 of the concentration in mol/L

Documented pKi of COCc1ccc(-c2ccc(N(C[C@@H](N)[C@@H](C)OC)C(=O)[C@@H]3C[C@H]3c3ccccn3)cc2)cc1 : 6.12

* * *

- TGT: Kappa-type opioid receptor (Homo sapiens)
- Sequence (P41145 whole entry): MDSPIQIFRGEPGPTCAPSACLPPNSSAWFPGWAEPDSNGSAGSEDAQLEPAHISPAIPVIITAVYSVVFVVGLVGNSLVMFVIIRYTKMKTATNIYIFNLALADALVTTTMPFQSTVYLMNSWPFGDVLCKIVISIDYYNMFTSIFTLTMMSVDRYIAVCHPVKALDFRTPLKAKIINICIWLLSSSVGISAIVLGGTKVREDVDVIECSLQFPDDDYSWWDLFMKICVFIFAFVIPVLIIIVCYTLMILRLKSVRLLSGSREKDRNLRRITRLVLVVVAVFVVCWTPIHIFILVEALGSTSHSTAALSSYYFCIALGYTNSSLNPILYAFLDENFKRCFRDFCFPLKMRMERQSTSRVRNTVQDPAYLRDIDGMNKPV
MEASUREMENT_TYPE: pKi
Keep in mind that pKi stands for -log10 of concentration in molar terms.

Summary for this compound, COCc1ccc(-c2ccc(N(C[C@@H](N)[C@@H](C)OC)C(=O)[C@@H]3C[C@H]3c3ccccn3)cc2)cc1 : pKi is 5.64

* * *

- TGT: Sodium-dependent serotonin transporter (Homo sapiens)
- METHOD_SUMMARY: Inhibition of human SERT expressed in HEK293 cells assessed as reduction in SERT-mediated substrate uptake after 30 mins by fluorescence-based assay
MEASUREMENT_TYPE: IC50 (µM)
State just the number; it will be interpreted in µM.

Looking up COCc1ccc(-c2ccc(N(C[C@@H](N)[C@@H](C)OC)C(=O)[C@@H]3C[C@H]3c3ccccn3)cc2)cc1 , I found its IC50 recorded as 25.1
